compounds and their reported melting point

[
  {
    "compound": "O=C(O)c1csc2ccc(O)cc12",
    "melting point": "262 to 263 °C"
  },
  {
    "compound": "O=C1Nc2cccc(-c3cccs3)c2/C1=C/c1ccc[nH]1",
    "melting point": "213 to 214 °C"
  }
]

Now for a further compound.
Record CC(C)(C)C(=O)Nc1nc(O)c2c(n1)NCC(CCC1CCC(C(=O)O)CC1)C2 (stereo not given) , field melting point: 218 to 234 °C

###

measured_property: melting point

These recorded examples may help you get a feel for the data.
[
  {
    "molecule": "COC(=O)c1cc(OC)c(O)cc1[N+](=O)[O-]",
    "recorded_value": "101 to 102 °C"
  },
  {
    "molecule": "O=S1(=O)c2cccc3cccc(c23)N1CC(O)CN1CCN(c2ccc(F)cc2)CC1 (stereo not given)",
    "recorded_value": "130 °C"
  },
  {
    "molecule": "CCN(C=Nc1ccncc1O)CC",
    "recorded_value": "104 to 106 °C"
  },
  {
    "molecule": "CN(CCCN)S(=O)(=O)CCC(F)(F)C(F)(F)C(F)(F)C(F)(F)C(F)(F)C(F)(F)F",
    "recorded_value": "135 °C"
  }
]

According to the records, this molecule CC1(C)NC(=O)N(c2ccc(C#N)c(C(F)(F)F)c2)C1=N displays melting point of 228 °C

###

measured_property: melting point

Before answering, review these 4 worked examples.
[
  {
    "compound": "CN1C(=O)C(C2=COc3cc4ccccc4cc3O2)=C(c2cn(C(=O)OC(C)(C)C)c3ccccc23)C1=O",
    "recorded_value": "158 °C"
  },
  {
    "compound": "Cc1cccc(NC(=O)c2cccc(C(F)(F)F)c2)c1C(=O)O",
    "recorded_value": "198 to 204 °C"
  },
  {
    "compound": "CC(=O)SCc1nccc(SCCCSc2ccc3ncc([N+](=O)[O-])n3n2)c1C",
    "recorded_value": "138 to 140 °C"
  },
  {
    "compound": "COC(=O)c1ccc2c(=O)n(Cc3ccc(OC)cc3)c(=O)[nH]c2c1",
    "recorded_value": "254 to 256 °C"
  }
]

Lab note: next compound to report on.
Please fill in: melting point reported for O=C(OCC1CC1)c1ncn2c1[C@@H]1CCCN1C(=O)c1c-2ccc(Cl)c1Cl = 185 to 186 °C

###

Quick reference: melting point of the listed items.

Sample answers from the record:
[
  {
    "compound": "O=C(OC1CCC1)N1CCC(c2nc3cc(-c4ccc(-n5cnnn5)cc4F)ccc3o2)CC1",
    "melting point": "165 to 169 °C"
  },
  {
    "compound": "COc1ccc(S(=O)(=O)Nc2nc(-c3cccc([N+](=O)[O-])c3)cs2)cc1",
    "melting point": "157 to 159 °C"
  }
]

The reported value for COc1ccc(Cc2nc3n(-c4c(Cl)cc(Cl)cc4Cl)[nH]c(C(C)C)c-3c(=O)n2)cc1 in terms of melting point is 183 to 185 °C

For this compound ( CCn1ncc2c3c(NCc4ccc(OC)c(Cl)c4)nnc(N4CCC(O)CC4)c3cnc21 ), measured melting point is 109 to 110 °C

Please fill in: melting point reported for COc1ccc(S(=O)(=O)C(C(=O)NO)C(C)C)cc1 (stereo not given) = 220 °C

Hey, just so you know, these numbers are from a melting point compilation (Tetko et al.; mined from patent text by program, amines drawn as free bases though some values may be those of a salt).
